- Test Target: CYP3A4 (Homo sapiens)
- Sequence (P08684 whole entry): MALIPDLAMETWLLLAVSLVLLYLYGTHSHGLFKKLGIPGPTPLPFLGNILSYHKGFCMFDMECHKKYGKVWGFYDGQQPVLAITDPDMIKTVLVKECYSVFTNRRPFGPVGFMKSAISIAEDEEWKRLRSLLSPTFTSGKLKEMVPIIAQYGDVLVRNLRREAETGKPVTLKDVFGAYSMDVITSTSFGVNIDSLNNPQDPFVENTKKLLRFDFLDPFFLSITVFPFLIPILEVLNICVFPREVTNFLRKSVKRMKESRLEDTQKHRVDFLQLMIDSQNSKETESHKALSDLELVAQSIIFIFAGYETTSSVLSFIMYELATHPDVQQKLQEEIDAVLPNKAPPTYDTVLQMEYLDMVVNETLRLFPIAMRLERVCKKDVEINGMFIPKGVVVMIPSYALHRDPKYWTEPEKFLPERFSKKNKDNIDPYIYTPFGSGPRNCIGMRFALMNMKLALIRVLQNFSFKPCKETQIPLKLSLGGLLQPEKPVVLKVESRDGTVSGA
- Procedure Details: Single point CYP450 inhibition test
- Format: in vitro ADME
Metric Name: inhibition at 10 µM

Query string: Would you kindly share the measured inhibition at 10 µM for CN1CCC(NC(=O)c2ccc(-c3ccc(-n4c(=O)ccc5cnc6ccc(-c7cnc8ccccc8c7)cc6c54)cc3C(F)(F)F)cc2)CC1 [Compound 10] ?
Result string: > 60%

====

- Test Target: CYP2D6 (Homo sapiens, UniProt P10635)
- Sequence (P10635 whole entry): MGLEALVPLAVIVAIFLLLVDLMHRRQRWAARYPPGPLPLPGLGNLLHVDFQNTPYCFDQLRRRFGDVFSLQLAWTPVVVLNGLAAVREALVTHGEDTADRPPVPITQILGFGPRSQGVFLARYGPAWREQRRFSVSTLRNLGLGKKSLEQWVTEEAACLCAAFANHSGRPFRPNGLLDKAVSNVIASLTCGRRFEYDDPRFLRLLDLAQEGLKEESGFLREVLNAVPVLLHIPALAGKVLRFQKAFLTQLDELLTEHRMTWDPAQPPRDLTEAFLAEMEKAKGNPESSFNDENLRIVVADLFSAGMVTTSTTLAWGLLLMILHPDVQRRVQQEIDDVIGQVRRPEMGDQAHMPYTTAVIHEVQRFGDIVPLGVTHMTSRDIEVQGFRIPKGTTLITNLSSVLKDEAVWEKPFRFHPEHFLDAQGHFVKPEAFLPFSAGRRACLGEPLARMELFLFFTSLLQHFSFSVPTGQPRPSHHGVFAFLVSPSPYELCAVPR
- Procedure Details: Single point CYP450 inhibition test
- Format: in vitro ADME
- Particulars: human, CYP2D6 % inhibition
Metric Name: inhibition at 10 µM (%)
// note: answer is a bare numeric in %

Query string: Would you kindly share the measured inhibition at 10 µM for Cc1cc(-n2c(=O)ccc3cnc4ccc(-c5cnc6ccccc6c5)cc4c32)ccc1-c1ccc(C(=O)NC2CCN(C)CC2)cc1 [Compound 19] ?
Result string: 24
